Test system: Plasmodium berghei
test-protocol: Screen against P. berghei liver stage (PbLuc), transformed with Luciferase, at 10uM
Format: functional, HepG2
test-context: tested at 10 uM
About 8,600 (12%) of roughly 69,000 compounds showed an effect of 50% or more. This is one part of a sample in which strong results are shown more often than they occur.
Consider the cut-off 10%. If the recorded INHIBITION is strictly smaller, the label is Met; if not, the label is Not met.

# example entries with known answers
[[record]]
compound = "COc1cc(C)ccc1OCCC(=O)N1CCCC(n2cncn2)C1 (centres undefined)"
assayed_system = "Plasmodium berghei"
category = "Met"

[[record]]
compound = "NC(=O)COc1ccc(CNCc2cc(F)ccc2F)cc1"
assayed_system = "Plasmodium berghei"
category = "Met"

[[record]]
compound = "N#CC(NC(=O)CC(F)(F)F)c1ccsc1 (centres undefined)"
assayed_system = "Plasmodium berghei"
category = "Met"

[[record]]
compound = "CCc1nc(Cn2c(=O)n(C)c3ccccc32)no1"
assayed_system = "Plasmodium berghei"
category = "Not met"


Regarding O=C(NC1CC1)C1=CC2(CCN(CC3CC3)CC2)c2ccccc21 , kindly confirm whether its INHIBITION is beneath 10%. Not met

Criterion: INHIBITION strictly below 10%. Is it met by Cc1nc(CN(C)C2CCN(CCCOc3ccccc3)C2)no1 (centres undefined) ? Not met

Find out if reported INHIBITION for Cc1oncc1C(=O)N1C[C@H]2CCCC(N(C)Cc3cccs3)[C@H]2C1 (some centres undefined) is less than 10% Not met

* * *

Tested on: Plasmodium berghei
test-protocol: Screen against P. berghei liver stage (PbLuc), transformed with Luciferase, at 10uM
Type: functional, HepG2
test-context: tested at 10 uM
Hit rate of the full screen: of about 69,000 compounds, about 8,600 (12%) showed an effect of 50% or more. For the sample, strong results were picked, then their nearest neighbours and some compounds at random.
The recorded INHIBITION of each item maps onto one of these classes: lo (below 40%), mid (40% to below 60%), hi (60% or more)

The following compounds have reported results that may help.
[[record]]
compound = "CC(Nc1ncnc2c1CCNC2)c1ccc(C(C)(C)C)cc1 (configuration not stated)"
category = "hi"

[[record]]
compound = "CS(=O)(=O)Cc1nc(CN2CCCc3sccc3C2)cs1"
category = "lo"

[[record]]
compound = "CS(=O)(=O)Cc1nc(CN2CCc3ccccc3CC2)cs1"
category = "mid"

[[record]]
compound = "CC1CCN(c2nc3c(cnn3-c3ccccc3)c(=O)[nH]2)CC1"
category = "hi"

[[record]]
compound = "Cc1ccccc1C(Nc1ncnc2c1CCNC2)c1ccccc1 (configuration not stated)"
category = "lo"

[[record]]
compound = "Cc1nccn1C1CCCN(C(=O)c2cccc(-n3cccc3)c2)C1 (configuration not stated)"
category = "mid"


Looking at Cc1cc(N(C)CCn2ccnc2C)n2nccc2n1 , which class would you pick? mid

Using the reported INHIBITION, which band applies to Cc1nc(C(C)Nc2ncnc3c2CCNCC3)c(C)s1 (configuration not stated) ? lo

Bin? CCOc1ccc(C(C)Nc2ncnc3c2CCNC3)cc1OCC (configuration not stated) mid

Place this compound in its band: CC(Nc1ncnc2c1CCNC2)c1ccc2c(c1)CCCC2 (configuration not stated) hi

Which category fits this record: CC(C)Nc1ncnc2c1CCNCC2 mid

Quick check: band for CC(C)Cc1noc(CN(C)c2cc(C(C)C)nc3ccnn23)n1 lo
